test system: velvetleaf (Abutilon theophrasti); test: Test A preemergence, soil drench; format: in vivo; settings: Rate 2000 g/ha, approx. eleven days
We begin with a simple list: items and their reported Plant response rating (visual injury vs untreated controls).
Returns: the value as a bare number; no unit string appended.

Examples with answers:
Record CCC(C)c1nn(C2CCN(c3cccc(C(F)(F)F)c3)C2=O)cc1Cl (centres unmarked) [Compound 13] . Reported Plant response rating (visual injury vs untreated controls): 0

Record O=C1C(n2cccn2)CCN1c1cccc(C(F)(F)F)c1 (centres unmarked) [Compound 15] . Reported Plant response rating (visual injury vs untreated controls): 100

Record CC1(C)CCc2cn(C3CCN(c4cccc(C(F)(F)F)c4)C3=O)nc21 (centres unmarked) [Compound 10] . Reported Plant response rating (visual injury vs untreated controls): 10

Record CC(C)(C)c1ccn(C2CCN(c3cccc(I)c3)C2=O)n1 (centres unmarked) [Compound 88] . Reported Plant response rating (visual injury vs untreated controls): 30

Others:
Record CC1CCc2cn(C3CCN(c4cccc(C(F)(F)F)c4)C3=O)nc21 (centres unmarked) [Compound 11] . Reported Plant response rating (visual injury vs untreated controls): 20

----------
We begin with a simple list: items and their reported Plant response rating, Ragweed, Common.
test system: common ragweed (Ambrosia elatior); experiment: Test C postemergence; format: in vivo; settings: Rate 500 g/ha, scale 0 to 100 (0 no effect, 100 complete control)
Returns: the value as a bare number; no unit string appended.

Examples with answers:
Record COc1cc(N2CCC(n3ccc(C(C)C)n3)C2=O)ccc1C (stereo not shown) . Reported Plant response rating, Ragweed, Common: 90

Record COc1cc(N2CCC(n3ccc(C(C)C)n3)C2=O)ccc1Br (stereo not shown) . Reported Plant response rating, Ragweed, Common: 90

Record COc1cc(N2CCC(n3ccc(C(C)(C)C)n3)C2=O)ccc1Cl (stereo not shown) . Reported Plant response rating, Ragweed, Common: 90

Record CCC(CC)c1ccn(C2SCN(c3cccc(C(F)(F)F)c3)C2=O)n1 (stereo not shown) . Reported Plant response rating, Ragweed, Common: 40

Record CCC(C)c1ccn(C2CCN(c3ccc(C)c(OC)c3)C2=O)n1 (stereo not shown) . Reported Plant response rating, Ragweed, Common: 80

Record O=C1C(n2ccc(C3CCC3)n2)SCN1c1cccc(OC(F)(F)F)c1 (stereo not shown) . Reported Plant response rating, Ragweed, Common: 40

Others:
Record CCC(C)c1ccn(C2CCN(c3ccc(Br)c(OC)c3)C2=O)n1 (stereo not shown) . Reported Plant response rating, Ragweed, Common: 100

----------
test system: Surinam grass (Brachiaria decumbens); test: Test C postemergence; assay type: in vivo; details: Rate 250 g/ha, scale 0 to 100 (0 no effect, 100 complete control)
MEASURED_ENDPOINT: Plant response rating, Surinam grass

Examples with answers:
Record CCC(CC)c1ccn(C2CCN(c3ccc(C)c(OC)c3)C2=O)n1 (centres unmarked) . Reported Plant response rating, Surinam grass: 0

Record COc1cc(N2CCC(n3ccc(C(C)C)n3)C2=O)ccc1Cl (centres unmarked) . Reported Plant response rating, Surinam grass: 0

Record CC(C)(C)c1ccn(C2SCN(c3cccc(OC(F)(F)F)c3)C2=O)n1 (centres unmarked) . Reported Plant response rating, Surinam grass: 0

Record CCOc1cc(N2CCC(n3ccc(C(C)(C)C)n3)C2=O)ccc1C (centres unmarked) . Reported Plant response rating, Surinam grass: 0

Okay, now this compound:
Record CCC(CC)c1ccn(C2OCN(c3cccc(OC(F)F)c3)C2=O)n1 (centres unmarked) . Reported Plant response rating, Surinam grass: 40

----------
test system: velvetleaf (Abutilon theophrasti); assay: Test C preemergence; assay type: in vivo; conditions: Rate 125 g/ha; scale 0 to 100, 0 no effect, 100 complete control
Source text: […]
MEASURED_ENDPOINT: Plant response rating, Velvetleaf
Returns: the value as a bare number; no unit string appended.

Examples with answers:
Record CC(C)OC(=O)c1cccc(N2CCC(n3ccc(C(C)(C)C)n3)C2=O)c1 (stereo not drawn) . Reported Plant response rating, Velvetleaf: 0

Record CC(C)(C)c1ccn(C2OCN(c3cccc(OC(F)F)c3)C2=O)n1 (stereo not drawn) . Reported Plant response rating, Velvetleaf: 20

Okay, now this compound:
Record Cc1ccc(N2CCC(n3ccc(C(C)(C)C)n3)C2=O)cc1OCCCl (stereo not drawn) . Reported Plant response rating, Velvetleaf: 100

----------
test system: lambsquarters (Chenopodium album); test: Test B postemergence; format: in vivo; settings: Rate 125 g/ha, scale 0 to 100, 0 no effect, 100 complete control
We begin with a simple list: items and their reported Plant response rating, Lambsquarters.

Record COc1cc(N2CCC(n3ccc(C(C)(C)C)n3)C2=O)ccc1Br (stereo not shown) . Reported Plant response rating, Lambsquarters: 90

Record Cc1cccc(N2CCC(n3ccc(C(C)(C)C)n3)C2=O)c1 (stereo not shown) . Reported Plant response rating, Lambsquarters: 30

Record CCOc1cccc(N2CCC(n3ccc(C(C)C)n3)C2=O)c1 (stereo not shown) . Reported Plant response rating, Lambsquarters: 0

Others:
Record CCCCC(CCCC)c1ccn(C2SCN(c3cccc(C(F)(F)F)c3)C2=O)n1 (stereo not shown) . Reported Plant response rating, Lambsquarters: 70

----------
tested on: pigweed (Amaranthus retroflexus); assay: Test B preemergence; format: in vivo; settings: preemergence; Rate 125 g/ha; scale of 0 to 100 where 0 is no effect and 100 is complete control; 13 to 15 days
MEASURED_ENDPOINT: Plant response rating, Pigweed

Examples with answers:
Record CC(C)(C)c1ccn(C2CCN(c3cccc(OC(F)(F)F)c3)C2=O)n1 (stereo not drawn) . Reported Plant response rating, Pigweed: 100

Record CC(C)(C)c1ccn(C2CCN(c3cc(C(F)(F)F)cc(C(F)(F)F)c3)C2=O)n1 (stereo not drawn) . Reported Plant response rating, Pigweed: 0

Record CC(C)c1cccc(N2CCC(n3ccc(C(C)(C)C)n3)C2=O)c1 (stereo not drawn) . Reported Plant response rating, Pigweed: 0

Record COc1cc(N2CCC(n3ccc(C(C)(C)C)n3)C2=O)ccc1Cl (stereo not drawn) . Reported Plant response rating, Pigweed: 100

Record Cc1c(Cl)cc(N2CCC(n3ccc(C(C)(C)C)n3)C2=O)cc1Cl (stereo not drawn) . Reported Plant response rating, Pigweed: 80

Record CC(C)(C)c1ccn(C2CCN(c3cccc(OC(F)(F)C(F)F)c3)C2=O)n1 (stereo not drawn) . Reported Plant response rating, Pigweed: 0

Okay, now this molecule:
Record CC(C)Oc1ccn(C2CCN(c3cccc(C(F)(F)F)c3)C2=O)n1 (stereo not drawn) . Reported Plant response rating, Pigweed: 0

----------
tested on: velvetleaf (Abutilon theophrasti); assay: Test C preemergence; type: in vivo; details: Preemergence; Rate 500 g/ha; scale 0 to 100
Text: […]
We begin with a simple list: items and their reported Plant response rating, Velvetleaf.
Returns: the value as a bare number; no unit string appended.

Examples with answers:
Record O=C1C(n2ccc(C3CCCCC3)n2)SCN1c1cccc(C(F)(F)F)c1 (stereo not shown) . Reported Plant response rating, Velvetleaf: 0

Record CC(C)(C)c1ccn(C2CCN(c3cccc(OC(F)(F)F)c3)C2=O)n1 (stereo not shown) . Reported Plant response rating, Velvetleaf: 40

Record CC(C)(C)c1ccn(C2SCN(c3cccc(OC(F)(F)F)c3)C2=O)n1 (stereo not shown) . Reported Plant response rating, Velvetleaf: 30

Okay, now this molecule:
Record O=C1C(n2ccc(C3CCCCC3)n2)OCN1c1cccc(C(F)(F)F)c1 (stereo not shown) . Reported Plant response rating, Velvetleaf: 30

----------
tested on: morningglory (Ipomoea hederacea); experiment: Test C preemergence; type: in vivo; conditions: Rate 125 g/ha; scale 0 to 100, 0 no effect, 100 complete control
MEASURED_ENDPOINT: Plant response rating, Morningglory

Examples with answers:
Record CCC(CC)c1ccn(C2CCN(c3ccc(Br)c(OC)c3)C2=O)n1 (stereo not shown) . Reported Plant response rating, Morningglory: 100

Record CC(C)OC(=O)c1cccc(N2CCC(n3ccc(C(C)(C)C)n3)C2=O)c1 (stereo not shown) . Reported Plant response rating, Morningglory: 0

Record COc1cc(N2CCC(n3ccc(C(C)C)n3)C2=O)ccc1Br (stereo not shown) . Reported Plant response rating, Morningglory: 90

Okay, now this molecule:
Record CCC(CC)c1ccn(C2CCN(c3ccc(C)c(OC)c3)C2=O)n1 (stereo not shown) . Reported Plant response rating, Morningglory: 20

----------
test system: corn (Zea mays); experiment: Test B preemergence; type: in vivo; conditions: preemergence; Rate 125 g/ha; scale of 0 to 100 where 0 is no effect and 100 is complete control; 13 to 15 days
MEASURED_ENDPOINT: Plant response rating, Corn
Returns: the value as a bare number; no unit string appended.

Examples with answers:
Record CCC(CC)c1ccn(C2CCN(c3ccc(Br)c(OC)c3)C2=O)n1 (centres unmarked) [Compound 143] . Reported Plant response rating, Corn: 0

Record CC(C)(C)c1ccn(C2CCN(c3ccc(Cl)c(Br)c3)C2=O)n1 (centres unmarked) [Compound 56] . Reported Plant response rating, Corn: 0

Record COc1cccc(N2CCC(n3ccc(C(C)(C)C)n3)C2=O)c1 (centres unmarked) [Compound 87] . Reported Plant response rating, Corn: 30

Record CCCCC(C)c1ccn(C2OCN(c3cccc(C(F)(F)F)c3)C2=O)n1 (centres unmarked) [Compound 98] . Reported Plant response rating, Corn: 0

Record CC(C)(C)c1ccn(C2CCN(c3cc(C(F)(F)F)cc(C(F)(F)F)c3)C2=O)n1 (centres unmarked) [Compound 54] . Reported Plant response rating, Corn: 0

Record CCCC(C)c1ccn(C2CCN(c3cccc(C(F)(F)F)c3)C2=O)n1 (centres unmarked) [Compound 100] . Reported Plant response rating, Corn: 0

Record O=C1C(n2ccc(C3CCCCC3)n2)SCN1c1cccc(OC(F)(F)F)c1 (centres unmarked) [Compound 50] . Reported Plant response rating, Corn: 0

Record CCC(C)c1ccn(C2CCN(c3ccc(F)c(C(F)(F)F)c3)C2=O)n1 (centres unmarked) [Compound 145] . Reported Plant response rating, Corn: 0

Record COc1ccn(C2CCN(c3cccc(C(F)(F)F)c3)C2=O)n1 (centres unmarked) [Compound 60] . Reported Plant response rating, Corn: 0

Record CCCCC(C)c1ccn(C2SCN(c3cccc(C(F)(F)F)c3)C2=O)n1 (centres unmarked) [Compound 103] . Reported Plant response rating, Corn: 0

Others:
Record CCCC(C)c1ccn(C2CCN(c3cccc(OCC)c3)C2=O)n1 (centres unmarked) [Compound 129] . Reported Plant response rating, Corn: 20

Record Cc1ccc(N2CCC(n3ccc(C(C)(C)C)n3)C2=O)cc1OCCCl (centres unmarked) [Compound 109] . Reported Plant response rating, Corn: 0

Record CCOc1cc(N2CCC(n3ccc(C(C)(C)C)n3)C2=O)ccc1C (centres unmarked) [Compound 106] . Reported Plant response rating, Corn: 30

Record CC(C)(C)c1ccn(C2CCN(c3ccc(F)c(Cl)c3)C2=O)n1 (centres unmarked) [Compound 46] . Reported Plant response rating, Corn: 0

Record CCC(CC)c1ccn(C2OCN(c3cccc(OC(F)(F)F)c3)C2=O)n1 (centres unmarked) [Compound 68] . Reported Plant response rating, Corn: 0

Record CCC(C)c1ccn(C2CCN(c3ccc(Br)c(OC)c3)C2=O)n1 (centres unmarked) [Compound 142] . Reported Plant response rating, Corn: 0

Record Cc1c(Cl)cc(N2CCC(n3ccc(C(C)(C)C)n3)C2=O)cc1Cl (centres unmarked) [Compound 74] . Reported Plant response rating, Corn: 0

Record CCOc1ccn(C2CCN(c3cccc(C(F)(F)F)c3)C2=O)n1 (centres unmarked) [Compound 61] . Reported Plant response rating, Corn: 0

Record CSc1cccc(N2CCC(n3ccc(C(C)(C)C)n3)C2=O)c1 (centres unmarked) [Compound 86] . Reported Plant response rating, Corn: 0

Record CCCC(C)c1ccn(C2CCN(c3cccc(OC)c3)C2=O)n1 (centres unmarked) [Compound 99] . Reported Plant response rating, Corn: 0

Cited source: patent US7138361B2
